Overview of recorded Exposure in Tumor for various compounds
- Test system: LNCaP tumor bearing mice
- ASSAY PROCEDURE: SPECT/CT scanning, exposure of 177Lu labeled compounds in tumor and tissues
- Assay type: in vivo
- RUN PARAMETERS: labeled with 177Lu; about 7.4 MBq (200 μCi) tail vein; scans 1-72 h

- COMPOUND: "COc1ccc(CCCC(=O)NC(CCCCN)C(=O)N[C@@H](CCCCNC(=O)CN2CCN(CC(=O)O)CCN(CC(=O)O)CCN(CC(=O)O)CC2)C(=O)NCC2CCC(C(=O)N[C@@H](Cc3ccc4ccccc4c3)C(=O)NCCCC[C@H](NC(=O)N[C@@H](CCC(=O)O)C(=O)O)C(=O)O)CC2)cc1 (stereo partly shown)"
  SUBJECT OF TEST: "LNCaP tumor bearing mice"
  Exposure in Tumor (h*ID %/g): 131.9
- COMPOUND: "O=C(O)CCCCCCCCCCCCCCC(=O)N[C@@H](CCCCNC(=O)CN1CCN(CC(=O)O)CCN(CC(=O)O)CCN(CC(=O)O)CC1)C(=O)NCC1CCC(C(=O)N[C@@H](Cc2ccc3ccccc3c2)C(=O)NCCCC[C@H](NC(=O)N[C@@H](CCC(=O)O)C(=O)O)C(=O)O)CC1 (stereo partly shown)"
  SUBJECT OF TEST: "LNCaP tumor bearing mice"
  Exposure in Tumor (h*ID %/g): 1394
- COMPOUND: "O=C(O)CC[C@H](NC(=O)N[C@@H](CCCCNC(=O)[C@H](Cc1ccc2ccccc2c1)NC(=O)[C@H]1CC[C@H](CNC(=O)CN2CCN(CC(=O)O)CCN(CC(=O)O)CCN(CC(=O)O)CC2)CC1)C(=O)O)C(=O)O [PSMA-617, reference compound]"
  SUBJECT OF TEST: "LNCaP tumor bearing mice"
  Exposure in Tumor (h*ID %/g): 346.9
- COMPOUND: "COc1ccc(C(=O)NCCN2CCN(C(=O)CCC(=O)N[C@@H](CCCCNC(=O)CN3CCN(CC(=O)O)CCN(CC(=O)O)CCN(CC(=O)O)CC3)C(=O)NCC3CCC(C(=O)N[C@@H](Cc4ccc5ccccc5c4)C(=O)NCCCC[C@H](NC(=O)N[C@@H](CCC(=O)O)C(=O)O)C(=O)O)CC3)CC2)cc1 (stereo partly shown)"
  SUBJECT OF TEST: "LNCaP tumor bearing mice"
  Exposure in Tumor (h*ID %/g): 281

* * *

- System: LNCaP tumor bearing mice
- ASSAY PROCEDURE: SPECT/CT scanning, exposure of 177Lu labeled compounds in tumor and tissues
- Type: in vivo
- RUN PARAMETERS: labeled with 177Lu; about 7.4 MBq (200 μCi) tail vein; scans 1-72 h

- COMPOUND: "COc1ccc(CCCC(=O)NC(CCCNC(=N)N)C(=O)N[C@@H](CCCCNC(=O)CN2CCN(CC(=O)O)CCN(CC(=O)O)CCN(CC(=O)O)CC2)C(=O)NCC2CCC(C(=O)N[C@@H](Cc3ccc4ccccc4c3)C(=O)NCCCC[C@H](NC(=O)N[C@@H](CCC(=O)O)C(=O)O)C(=O)O)CC2)cc1 (some centres unmarked) [PSMA-A]"
  SUBJECT OF TEST: "LNCaP tumor bearing mice"
  Exposure in Heart, h*ID %/g: 50.46
- COMPOUND: "COc1ccc(CCCC(=O)NC(Cc2c[nH]cn2)C(=O)N[C@@H](CCCCNC(=O)CN2CCN(CC(=O)O)CCN(CC(=O)O)CCN(CC(=O)O)CC2)C(=O)NCC2CCC(C(=O)N[C@@H](Cc3ccc4ccccc4c3)C(=O)NCCCC[C@H](NC(=O)N[C@@H](CCC(=O)O)C(=O)O)C(=O)O)CC2)cc1 (some centres unmarked) [PSMA-B]"
  SUBJECT OF TEST: "LNCaP tumor bearing mice"
  Exposure in Heart, h*ID %/g: 54.22
- COMPOUND: "COc1ccc(C(=O)NCCN2CCN(C(=O)CCC(=O)N[C@@H](CCCCNC(=O)CN3CCN(CC(=O)O)CCN(CC(=O)O)CCN(CC(=O)O)CC3)C(=O)NCC3CCC(C(=O)N[C@@H](Cc4ccc5ccccc5c4)C(=O)NCCCC[C@H](NC(=O)N[C@@H](CCC(=O)O)C(=O)O)C(=O)O)CC3)CC2)cc1 (some centres unmarked) [PSMA-K]"
  SUBJECT OF TEST: "LNCaP tumor bearing mice"
  Exposure in Heart, h*ID %/g: 54.52
- COMPOUND: "O=C(O)CCCCCCCCCCC(=O)N[C@@H](CCCCNC(=O)CN1CCN(CC(=O)O)CCN(CC(=O)O)CCN(CC(=O)O)CC1)C(=O)NCC1CCC(C(=O)N[C@@H](Cc2ccc3ccccc3c2)C(=O)NCCCC[C@H](NC(=O)N[C@@H](CCC(=O)O)C(=O)O)C(=O)O)CC1 (some centres unmarked) [PSMA-H]"
  SUBJECT OF TEST: "LNCaP tumor bearing mice"
  Exposure in Heart, h*ID %/g: 63.71
- COMPOUND: "O=C(O)CCCCCCCCCCCCCCC(=O)N[C@@H](CCCCNC(=O)CN1CCN(CC(=O)O)CCN(CC(=O)O)CCN(CC(=O)O)CC1)C(=O)NCC1CCC(C(=O)N[C@@H](Cc2ccc3ccccc3c2)C(=O)NCCCC[C@H](NC(=O)N[C@@H](CCC(=O)O)C(=O)O)C(=O)O)CC1 (some centres unmarked) [PSMA-F]"
  SUBJECT OF TEST: "LNCaP tumor bearing mice"
  Exposure in Heart, h*ID %/g: 581.6
